- Test system: Histamine-induced broncho-constriction
- ASSAY OVERVIEW: Antagonism of histamine-induced broncho-constriction (guinea-pig)
- Type: in vivo
- STATED CONDITIONS: Cavia porcellus, iv, read-out: % INHIBITION (± S.D.) of histamine-induced broncho-constriction
Listing of entries alongside the reported inhibition in vivo at 0.001 mg.
QUANTITY NAME: inhibition in vivo at 0.001 mg (%)

>>> df
                                   molecule                   quantity_name  unit_text  measured
0  CCC(O)CC[C@H](O)/C=C/[C@H]1CCC(=O)[C@@H]1CCCCCCC(=O)O (relative stereo)  inhibition in vivo at 0.001 mg          %      25.9
1  CC(O)CCC[C@H](O)/C=C/[C@H]1CCC(=O)[C@@H]1CCCCCCC(=O)O (relative stereo)  inhibition in vivo at 0.001 mg          %      23.9
2  O=C(O)CCC/C=C\C[C@H]1C(=O)CC[C@@H]1/C=C/[C@@H](O)CCCCCO  inhibition in vivo at 0.001 mg          %      60.7

###

Listing of entries alongside the reported inhibition in vivo at 0.001 mg.
- Tested on: Histamine-induced broncho-constriction
- ASSAY OVERVIEW: Antagonism of histamine-induced broncho-constriction (guinea-pig)
- Type: in vivo
- STATED CONDITIONS: Cavia porcellus, iv, read-out: % INHIBITION (± S.D.) of histamine-induced broncho-constriction
- Procedure: The activity of the 18.xi.-, 19.xi.- and 20.xi.-hydroxy-prostaglandin derivatives on the respiratory tract misculature was further confirmed by determination of their ability to antagonize histamine-induced bronchoconstriction. […] The ability of the compounds to counteract histamine-induced bronchoconstriction and the increase in tracheal segment pressure was determined using two dose levels--a low one and a high one.
QUANTITY NAME: inhibition in vivo at 0.001 mg (%)

>>> print(df.to_string())
                                   molecule  measured
0  CC(O)CCC[C@H](O)/C=C/[C@H]1CCC(=O)[C@@H]1C/C=C\CCCC(=O)O (some centres unmarked)      50.3
1  CCC(O)CC[C@H](O)/C=C/[C@H]1CCC(=O)[C@@H]1C/C=C\CCCC(=O)O (some centres unmarked)        45

###

- Tested on: Histamine-induced broncho-constriction
- ASSAY OVERVIEW: Antagonism of histamine-induced broncho-constriction (guinea-pig)
- Type: in vivo
- STATED CONDITIONS: Cavia porcellus, iv, read-out: % INHIBITION (± S.D.) of histamine-induced broncho-constriction
QUANTITY NAME: inhibition in vivo at 0.001 mg

In [3]: df
Out[3]:
                                   compound                   quantity_name  measured
0  CC(O)CCC[C@H](O)/C=C/[C@H]1[C@H](O)CC(=O)[C@@H]1CCCCCCC(=O)O (stereo partly drawn)  inhibition in vivo at 0.001 mg      ~60%
1  CC(O)CCC[C@H](O)/C=C/[C@H]1[C@H](O)CC(=O)[C@@H]1C/C=C\CCCC(=O)O (stereo partly drawn)  inhibition in vivo at 0.001 mg      ~70%
2  CCC(O)CC[C@H](O)/C=C/[C@H]1[C@H](O)CC(=O)[C@@H]1CCCCCCC(=O)O (stereo partly drawn)  inhibition in vivo at 0.001 mg      ~70%
